// provenance: patent US7799775B2

# TESTED_SYSTEM: 5-HT1A receptor (Rattus norvegicus)
# Construct: from tissue; host or cells: whole animal (SD male rats), behavioural read-out
# Sequence (P19327 1-422): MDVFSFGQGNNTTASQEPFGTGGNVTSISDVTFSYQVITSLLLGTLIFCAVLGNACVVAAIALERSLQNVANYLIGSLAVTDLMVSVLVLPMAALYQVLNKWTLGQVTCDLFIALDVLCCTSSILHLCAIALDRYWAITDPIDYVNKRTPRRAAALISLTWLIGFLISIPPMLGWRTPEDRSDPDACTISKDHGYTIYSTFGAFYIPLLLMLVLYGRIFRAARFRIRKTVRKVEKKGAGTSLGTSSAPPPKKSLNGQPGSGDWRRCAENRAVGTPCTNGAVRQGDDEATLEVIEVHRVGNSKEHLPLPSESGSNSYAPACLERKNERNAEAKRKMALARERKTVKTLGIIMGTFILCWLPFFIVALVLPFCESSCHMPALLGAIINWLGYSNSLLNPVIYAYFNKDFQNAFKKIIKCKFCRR
# METHOD_SUMMARY: Measurement of 5-HT1A receptor agonistic action on rats (in vivo): lower lip retraction and flat body posture
# RUN_CONDITIONS: SD male rats, 10 mg/kg intraperitoneal; maximum of group evaluation points, 4 grades 0-3, observed 5-30 min after administration
# Protocol: (3) Measurement of 5-HT1A Receptor Agonistic Action on Rats (in Vivo): Seven weeks old SD male rats were divided into 4-5 rats per group which were accustomized to the experimental environments twice. […] The results were evaluated in 4 grades (0: no reaction, 1: feeble reaction, 2: medium reaction, 3: maximum reaction).
Assign class by 5-HT1A Receptor Agonistic Action on Rats, FBP: not lower than 2 means Condition met; lower than 2 means Condition not met.

1. Cc1cc(N2CCN(CCCCc3nc4ccccc4c(=O)n3N)CC2)nc2ccccc12    Condition met
2. Cc1cc2c(N3CCN4CCC[C@H]4C3)nccc2s1    Condition met
3. c1cc2sccc2c(N2CCN3CCC[C@H]3C2)n1    Condition not met
4. CCn1c(CCCCN2CCN(c3cc(C)c4ccccc4n3)CC2)nc2c(c1=O)CCCC2    Condition met

Query string: Dear colleague, could you confirm whether Clc1ccc2ccnc(N3CCNCC3)c2c1 has 5-HT1A Receptor Agonistic Action on Rats, FBP at or above 2?
Result string: Condition not met

Query string: Dear colleague, could you confirm whether Nn1c(CCCCN2CCN(c3ccc4ccccc4n3)CC2)nc2cccc(Cl)c2c1=O has 5-HT1A Receptor Agonistic Action on Rats, FBP at or above 2?
Result string: Condition not met

Query string: Dear colleague, could you confirm whether Clc1ccc2ccnc(N3CCN4CCC[C@H]4C3)c2c1 has 5-HT1A Receptor Agonistic Action on Rats, FBP at or above 2?
Result string: Condition met

Query string: Dear colleague, could you confirm whether Nn1c(CCCCN2CCN(c3ccc4ccccc4n3)CC2)nc2ccccc2c1=O has 5-HT1A Receptor Agonistic Action on Rats, FBP at or above 2?
Result string: Condition not met

Query string: Dear colleague, could you confirm whether Nn1c(CCCCN2CCN(c3ccc4ccccc4n3)CC2)nc2c(c1=O)CCCC2 has 5-HT1A Receptor Agonistic Action on Rats, FBP at or above 2?
Result string: Condition not met

Query string: Dear colleague, could you confirm whether COc1ccc2ccnc(N3CCN4CCC[C@H]4C3)c2c1 has 5-HT1A Receptor Agonistic Action on Rats, FBP at or above 2?
Result string: Condition met

Query string: Dear colleague, could you confirm whether c1cc2ccsc2c(N2CCN3CCC[C@H]3C2)n1 has 5-HT1A Receptor Agonistic Action on Rats, FBP at or above 2?
Result string: Condition not met

Query string: Dear colleague, could you confirm whether Cn1c(CCCCN2CCN(c3ccc4ccccc4n3)CC2)nc2ccccc2c1=O has 5-HT1A Receptor Agonistic Action on Rats, FBP at or above 2?
Result string: Condition not met

Query string: Dear colleague, could you confirm whether c1cc2ccoc2c(N2CCN3CCC[C@H]3C2)n1 has 5-HT1A Receptor Agonistic Action on Rats, FBP at or above 2?
Result string: Condition met

Query string: Dear colleague, could you confirm whether CN1CCN(c2nccc3sccc23)CC1 has 5-HT1A Receptor Agonistic Action on Rats, FBP at or above 2?
Result string: Condition not met

Query string: Dear colleague, could you confirm whether Cn1c(CCCCN2CCN(c3ccc4ccccc4n3)CC2)nc2c(c1=O)CCCC2 has 5-HT1A Receptor Agonistic Action on Rats, FBP at or above 2?
Result string: Condition not met

Query string: Dear colleague, could you confirm whether c1cc2ccsc2c(N2CCN3CCC[C@@H]3C2)n1 has 5-HT1A Receptor Agonistic Action on Rats, FBP at or above 2?
Result string: Condition not met

Query string: Dear colleague, could you confirm whether Nn1c(CCCCN2CCN(c3ccc4ccccc4n3)CC2)nc2ccsc2c1=O has 5-HT1A Receptor Agonistic Action on Rats, FBP at or above 2?
Result string: Condition met
